Target: CathepsinG, from human neutrophils (Homo sapiens)
Sequence (P08311 21-244): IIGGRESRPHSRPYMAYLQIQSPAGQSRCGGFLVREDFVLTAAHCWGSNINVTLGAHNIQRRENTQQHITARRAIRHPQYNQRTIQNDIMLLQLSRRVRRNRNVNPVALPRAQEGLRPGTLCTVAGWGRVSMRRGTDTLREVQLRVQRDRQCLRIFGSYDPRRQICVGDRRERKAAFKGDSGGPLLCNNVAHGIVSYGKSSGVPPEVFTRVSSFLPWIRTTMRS
Assay: Enzymatic assay, cathepsin G
Conditions: Cathepsin G IC50
Where a SMILES comes first, the peptide text is derived from it.
measurement-type: IC50 (nM)
Could you give me the number in nM? Just the number is fine.

Task: Could you share which IC50 value was measured for CC[C@H](C)[C@@H]1NC(=O)[C@@H]2CCCN2C(=O)[C@@H]2CCCN2C(=O)[C@H](CC(=O)O)NC(=O)[C@H](CO)NC(=O)[C@H](CCCCN)NC(=O)[C@H]([C@@H](C)O)NC(=O)[C@@H]2CSSC[C@H](NC1=O)C(=O)N[C@@H](CO)C(=O)N1CCC[C@@H]1C(=O)N[C@@H](CC(=O)O)C(=O)N[C@@H](Cc1ccccc1)C(=O)N2 [Ex. 47] (HELM PEPTIDE1{F.C.T.K.S.D.P.P.I.C.S.[dP].D}$PEPTIDE1,PEPTIDE1,2:R3-10:R3|PEPTIDE1,PEPTIDE1,1:R1-13:R2$$$V2.0) ?
Result: 64

Numbers sourced from patent US8658604B2.
